Reference for the values: patent US11970483B2

Molecular target: MDR1 (Homo sapiens, UniProt P08183)
Construct: expressed in transfected cells; host or cells: LLC-PK1 cells (porcine kidney)
Sequence (P08183 whole entry): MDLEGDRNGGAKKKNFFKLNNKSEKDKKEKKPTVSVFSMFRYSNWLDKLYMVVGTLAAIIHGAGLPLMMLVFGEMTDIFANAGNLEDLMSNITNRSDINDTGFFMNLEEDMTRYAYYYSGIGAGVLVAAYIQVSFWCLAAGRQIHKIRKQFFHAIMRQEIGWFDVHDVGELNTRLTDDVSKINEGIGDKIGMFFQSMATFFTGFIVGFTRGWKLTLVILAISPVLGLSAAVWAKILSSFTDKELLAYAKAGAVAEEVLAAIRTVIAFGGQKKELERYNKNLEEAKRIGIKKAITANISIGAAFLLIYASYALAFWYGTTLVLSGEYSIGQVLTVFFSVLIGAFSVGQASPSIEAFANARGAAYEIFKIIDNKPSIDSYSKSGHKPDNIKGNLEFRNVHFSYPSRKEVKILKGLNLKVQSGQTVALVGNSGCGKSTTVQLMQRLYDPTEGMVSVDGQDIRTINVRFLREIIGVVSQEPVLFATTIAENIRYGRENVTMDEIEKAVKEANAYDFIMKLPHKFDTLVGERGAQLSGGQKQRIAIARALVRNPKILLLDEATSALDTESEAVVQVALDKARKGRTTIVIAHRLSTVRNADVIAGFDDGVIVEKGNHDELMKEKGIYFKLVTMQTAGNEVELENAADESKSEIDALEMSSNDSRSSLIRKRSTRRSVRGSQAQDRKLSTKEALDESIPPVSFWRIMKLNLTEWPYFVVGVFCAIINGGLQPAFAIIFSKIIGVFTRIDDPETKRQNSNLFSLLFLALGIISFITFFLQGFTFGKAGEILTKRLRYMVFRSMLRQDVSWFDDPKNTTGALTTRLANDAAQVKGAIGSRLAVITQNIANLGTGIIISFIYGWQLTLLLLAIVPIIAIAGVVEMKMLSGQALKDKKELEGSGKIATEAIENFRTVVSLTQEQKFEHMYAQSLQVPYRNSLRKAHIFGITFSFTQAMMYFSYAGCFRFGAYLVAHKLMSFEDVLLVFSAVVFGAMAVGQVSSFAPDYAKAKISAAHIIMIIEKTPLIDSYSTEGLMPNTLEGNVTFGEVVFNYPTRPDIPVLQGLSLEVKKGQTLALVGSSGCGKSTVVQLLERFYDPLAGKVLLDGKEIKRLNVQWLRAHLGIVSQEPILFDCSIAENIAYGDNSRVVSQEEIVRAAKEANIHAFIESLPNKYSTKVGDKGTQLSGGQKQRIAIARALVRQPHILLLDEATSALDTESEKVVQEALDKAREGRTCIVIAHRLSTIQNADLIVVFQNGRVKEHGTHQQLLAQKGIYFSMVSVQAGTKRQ
Experiment: MDR1 membrane permeability test
Type: in vitro ADME
Conditions: human MDR1-expressing LLC-PK1 cells, 10 μmol/L test compound, pH 7.4, read-out: Efflux ratio (ER)
Each record here notes measured efflux ratio at 1 h, 10 μmol/L.
Number only, please.

Illustrative cases are given below, each with its answer.
Cc1c(Cc2ccc(C(=O)NCC(=O)N(C)C)c(F)c2)cc(C(=O)N[C@H]2CCOC[C@@H]2O)c2c1CCO2 [Example 28]	12
Cc1c(Cc2ccc(-c3cn(C)nn3)cc2)cc(C(=O)N[C@H]2CCOC[C@@H]2O)c2c1CCO2 [Example 1]	3
Cc1c(Cc2ccc(C(=O)NC[C@H]3CCCO3)c(F)c2)cc(C(=O)N[C@H]2CCOC[C@@H]2O)c2c1CCO2 [Example 29]	6

I'd like to know its efflux ratio at 1 h, 10 μmol/L. The molecule in question is COCCNC(=O)c1ccc(Cc2cc(C(=O)N[C@H]3CCOC[C@@H]3O)c3c(c2C)CCO3)cc1F [Example 27]
6.2

###

Assay: Rat PK test (cassette dosing)
Type: in vivo
Conditions: male SD rats, plasma, oral administration 1 mg/kg, 5 compounds cassette, read-out: Tmax (time to reach maximum plasma concentration)
Each record here notes measured Tmax.
API: value field is a number in min; no unit string.

Illustrative cases are given below, each with its answer.
Cc1c(Cc2ccc(-c3cn(C)nn3)cc2)cc(C(=O)N[C@H]2CCOC[C@@H]2O)c2c1CCO2	60
COCCNC(=O)c1ccc(Cc2cc(C(=O)N[C@H]3CCOC[C@@H]3O)c3c(c2C)CCO3)cc1F	60
Cc1c(Cc2ccc(C(=O)NCC(=O)N(C)C)c(F)c2)cc(C(=O)N[C@H]2CCOC[C@@H]2O)c2c1CCO2	48

I'd like to know its Tmax. The compound in question is Cc1c(Cc2ccc(C(=O)NC[C@H]3CCCO3)c(F)c2)cc(C(=O)N[C@H]2CCOC[C@@H]2O)c2c1CCO2
30

###

Biological target: human M1 receptor (hCHRM1) (Homo sapiens, UniProt P11229)
Sequence (P11229 1-460): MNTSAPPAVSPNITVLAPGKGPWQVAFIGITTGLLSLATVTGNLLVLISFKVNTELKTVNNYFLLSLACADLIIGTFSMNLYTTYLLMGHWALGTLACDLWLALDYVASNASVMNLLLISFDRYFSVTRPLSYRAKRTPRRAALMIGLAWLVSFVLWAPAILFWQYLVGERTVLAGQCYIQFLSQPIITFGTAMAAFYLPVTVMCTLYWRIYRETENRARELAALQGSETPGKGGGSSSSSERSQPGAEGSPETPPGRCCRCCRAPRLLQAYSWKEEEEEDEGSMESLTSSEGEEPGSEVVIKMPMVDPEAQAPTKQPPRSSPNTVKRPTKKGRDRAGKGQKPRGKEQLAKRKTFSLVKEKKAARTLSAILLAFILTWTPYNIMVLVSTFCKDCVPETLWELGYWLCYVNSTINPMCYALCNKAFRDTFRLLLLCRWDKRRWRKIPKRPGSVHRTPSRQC
Assay: Measurement of M1 receptor positive allosteric modulator (M1PAM) activity (IP1 HTRF, in presence of EC20 acetylcholine)
Conditions: CHO-K1 cells stably expressing hCHRM1; acetylcholine at EC20 concentration; IP1 readout
Each record here notes measured EC50.

Illustrative cases are given below, each with its answer.
CNC(=O)c1ccc(Cc2cc(C(=O)N[C@H]3CCOC[C@@H]3O)c3c(c2C)CCO3)cn1	130 nM
Cc1c(Cc2ccc(C(=O)NC[C@@H]3CCCO3)c(F)c2)cc(C(=O)N[C@H]2CCOC[C@@H]2O)c2c1CCO2	56 nM
CNC(=O)c1ccc(Cc2cc(C(=O)N[C@H]3CCOC[C@@H]3O)c3c(c2C)CCO3)cc1F	24 nM
Cc1c(Cc2ccc(C(=O)NCC(=O)N(C)C)c(F)c2)cc(C(=O)N[C@H]2CCOC[C@@H]2O)c2c1CCO2	8.6 nM

I'd like to know its EC50. The compound in question is Cc1c(Cc2ccc(-c3cnn(C)c3)nc2)cc(C(=O)N[C@H]2CCOC[C@@H]2O)c2c1CCO2
33 nM
